B1: glmS ribozyme (parent)
chain: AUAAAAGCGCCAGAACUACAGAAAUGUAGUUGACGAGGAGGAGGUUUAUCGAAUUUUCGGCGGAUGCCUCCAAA

Variants of: B1
Experiment: kcat; higher = faster cleavage; RNA array
Details: with glucosamine-6-phosphate
Variants at the floor of the assay were thinned out.
This listing pairs variants with measured kcat.
Response body: numeric value in s⁻¹, unit text excluded.

Use these answered entries as a reference point.
Requested field: kcat. Item: AUAAAAGCGCCAGAACUACAGAAAUGUAGCUGACGAGGUGGAGGUUUAUCGAAUUUUCGGCGGAUGCCUCCAAA [U30C A39U]
0.000228

Requested field: kcat. Item: AUAAAAGCGCCAGAACUACAGAAAUGUAGUUGACGAGGAGGAGGCUUAUCGAAUUGUCGGCGGAUGCCUCCAAA [U45C U56G]
0.00225

Which kcat value belongs to AUAAAAGCGCCAGAAAUACAGAAAUGUAGUUGACGAGGAGGAGGUUGAUCGAAUUUUCGGCGGAUGCCUCCAAA [C16A U47G] ?
0.000198

kcat for AUAAAAGCGCCAGAACUACAGAAAUGUAGUUGACGAGGCGGAGGUAUAUCGAAUUUUCGGCGGAUGCCUCCAAA [A39C U46A] ?
0.000341

New cases:
What value of kcat has been reported for the following variant? AUAAAAGCGCCAGACCUACAGAAAUGUAGUUGCCGAGGAGGAGGUUUAUCGAAUUUUCGGCGGAUGCCUCCAAA [A15C A33C]
6.42e-05

Tell me the measured kcat of AUAAAAGCGCCAGAACUACAGAAAUGUAGUUGACGAGGAGGAGGUUUGUCGAAUUUUCAGCGGAUGCCUCCAAA [A48G G59A] , please.
5.08e-05

What kcat value was documented for this variant, AUAAAAGCGCCAUAACUACAGAAAUGUAGUUGACGCGUCGGAGGUUUAUCGAAUUUUCGGCGGAUGCCUCCAAA [G13U A36C G38U A39C] ?
1.03e-05
